This collection of values is drawn from PubChem BioAssay (EPA / NIEHS).

# system under test: Hepatocyte nuclear factor 4-alpha (Homo sapiens) (UniProt P41235)
# Sequence (P41235 whole entry, looked up): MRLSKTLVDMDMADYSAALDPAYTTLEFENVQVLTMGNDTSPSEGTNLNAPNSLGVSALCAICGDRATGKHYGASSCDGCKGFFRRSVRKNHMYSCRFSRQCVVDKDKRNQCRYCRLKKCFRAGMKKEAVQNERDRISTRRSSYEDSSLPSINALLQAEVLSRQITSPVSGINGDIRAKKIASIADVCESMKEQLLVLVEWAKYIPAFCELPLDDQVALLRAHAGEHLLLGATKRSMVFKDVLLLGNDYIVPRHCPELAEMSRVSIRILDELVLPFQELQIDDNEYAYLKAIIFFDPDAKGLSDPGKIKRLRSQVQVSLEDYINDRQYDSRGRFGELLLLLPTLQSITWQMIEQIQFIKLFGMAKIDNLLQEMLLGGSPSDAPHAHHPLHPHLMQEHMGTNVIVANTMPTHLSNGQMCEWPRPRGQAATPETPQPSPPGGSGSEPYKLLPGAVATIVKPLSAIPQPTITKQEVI
# assay details: ATG_HNF4a_TRANS: Attagene TRANS-FACTORIAL HepG2 Assay for human Hepatocyte Nuclear Factor 4 alpha (HNF4a) (AID 2282982)
# recorded conditions: HepG2 HNF4a transactivation reporter, mRNA readout
Records with an inconclusive call do not appear. Active and inactive are the calls of the source. Rule for the calls: active = hit-call score of the fitted dose curve at least 0.9, where 1 is the maximum; inconclusive = response in the unintended direction; inactive = score below 0.9.
Outcome codes: y for active, n for inactive

> print(dat)
                                    molecule  cat
 1  O=C(O)C(F)(F)C(F)(F)C(F)(F)C(F)(F)C(F)(F)C(F)(F)C(F)(F)C(F)(F)C(F)(F)C(F)(F)C(F)(F)C(F)(F)F    n
 2  FC(F)(F)C(F)(F)C(F)(F)C(F)(F)C(F)(F)C(F)(F)C(F)(F)C(F)(F)F    n
 3          CC(=O)Nc1ccc(N=Nc2cc(C)ccc2O)cc1    n
 4                 O=C(O)C(F)(F)C(F)(F)C(F)F    n
 5                                  CCCCCC=O    n
 6                      Nc1cc(Cl)c(N)c(Cl)c1    n
 7  OCC(F)(F)C(F)(F)C(F)(F)C(F)(F)C(F)(F)C(F)F    n
 8      O=C(OCCOCCOCCOC(=O)c1ccccc1)c1ccccc1    n
 9                      Oc1ccc(Nc2ccccc2)cc1    n
10                                   CCCCCCS    n
11  CCO[Si](CCC(F)(F)C(F)(F)C(F)(F)C(F)(F)C(F)(F)C(F)(F)F)(OCC)OCC    n
12                                 CNC(=S)NC    n
13                                  C1COCCN1    n
14  C=CC(=O)OCC(F)(F)C(F)(F)C(F)(F)C(F)(F)COC(=O)C=C    y
15      CCCCOCCOCCOC(=O)CCCCC(=O)OCCOCCOCCCC    n
16  C#C[C@]1(O)CC[C@H]2[C@@H]3CCc4cc(OC)ccc4[C@H]3CC[C@@]21C    n
17           C(=C(c1ccccc1)c1ccccc1)c1ccccc1    n
18             O=S(=O)(OCCOC(F)(F)F)C(F)(F)F    n
19        CCCCCCCOC(=O)c1ccccc1C(=O)OCCCCCCC    n
20  O=C(O)C(F)(F)C(F)(F)C(F)(F)C(F)(F)C(F)(F)C(F)(F)C(F)(F)C(F)(F)C(F)(F)C(F)F    n
21               O=C(O)C=C(C(F)(F)F)C(F)(F)F    n
22                   Cc1ccc(S(=O)(=O)NCl)cc1    n
23                          Cc1cccc(N(C)C)c1    n
24                           Cc1cc(C)cc(O)c1    n
25  CC(C)=CCCC(C)CCOC(=O)C(C)C (stereo unspecified)    n
26              O=C(O)C(F)(F)C(F)(F)C(F)(F)F    n

----------
# Tested on: Sodium/Iodide Symporter (NIS), SLC5A5 (gene 6528)
# assay details: CPHEA_Stoker_NIS_Inhibition_RAIU: CPHEA's Radioactive Iodide Uptake (RAIU) Assay for Sodium/Iodide Symporter (NIS) Inhibition, Stoker and Laws Labs (AID 2283841)
# Protocol: CPHEA_Stoker_NIS is a cell-based, single-readout assay that uses hNIS-HEK293T-EPA, a novel human kidney cell line expressing human NIS, with measurements taken at 2 hours after chemical dosing in a 96-well plate. […] A parallel cytoxicity assay (Cell Titer Glo, Promega) was also run in the same cell line.CPHEA_Stoker_NIS_Inhibition_RAIU is one of 2 assay components measured from the CPHEA_Stoker_NIS assay. […]
Inconclusive results are not listed. Calls of active or inactive are those of the source. The calls were made as follows: active = hit-call score of the fitted dose curve at least 0.9, where 1 is the maximum; inconclusive = response in the unintended direction; inactive = score below 0.9.
Outcome codes: label 1 (active), label 0 (inactive)

> print(dat)
                                 smiles.data      cat
 1  O=C(O)C(F)(F)C(F)(F)C(F)(F)C(F)(F)C(F)(F)C(F)(F)C(F)(F)C(F)(F)C(F)(F)C(F)(F)C(F)(F)C(F)(F)C(F)(F)F  label 0
 2                     CCCCCCOC(=O)c1ccccc1O  label 0
 3  OCC(F)(F)C(F)(F)C(F)(F)C(F)(F)C(F)(F)C(F)(F)F  label 0
 4  OCC(F)(F)C(F)(F)C(F)(F)C(F)(F)C(F)(F)C(F)F  label 0
 5        O=C(CC(=O)C(F)(F)C(F)(F)F)C(F)(F)F  label 1
 6  O=C(O)C(F)(F)C(F)(F)C(F)(F)C(F)(F)C(F)(F)C(F)(F)C(F)(F)C(F)(F)C(F)(F)C(F)F  label 1
 7      O=C(OCCOCCOCCOC(=O)c1ccccc1)c1ccccc1  label 0
 8  C=C(C)C(=O)OCC(F)(F)C(F)(F)C(F)(F)C(F)(F)C(F)(F)C(F)(F)C(F)(F)F  label 0
 9  O=C(O)C(F)(F)C(F)(F)C(F)(F)C(F)(F)C(F)(F)C(F)(F)C(F)(F)C(F)(F)C(F)(F)C(F)(F)C(F)(F)C(F)(F)F  label 0
10  OCCCC(F)(F)C(F)(F)C(F)(F)C(F)(F)C(F)(F)C(F)(F)C(F)(F)F  label 0
11  O=C(O)C(F)(F)C(F)(F)C(F)(F)C(F)(F)C(F)(F)C(F)(F)C(F)(F)C(F)(F)Cl  label 1
12  C=CC(=O)OCC(F)(F)C(F)(F)C(F)(F)C(F)(F)COC(=O)C=C  label 0

----------
# assay details: CCTE_Shafer_MEA_dev_spike_duration_mean: CCTE's Neural Network Formation Assay for Mean Spike Duration, Shafer Lab (AID 2284051);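 note: mean network spike duration pooled as area under curve over DIV 5 to 12 recordings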
Activity calls are given as the source filed them. The calls were made as follows: active = hit-call score of the fitted dose curve at least 0.9, where 1 is the maximum; inactive = score below 0.9.
Outcome codes: t for active, f for inactive

> print(dat)
                                 smiles.data  cat
 1                  O=S(=O)(OCC(F)F)C(F)(F)F    f
 2              OCC(F)(F)C(F)(F)C(F)(F)C(F)F    f
 3  Cc1ccc(S(=O)(=O)OCC(F)(F)C(F)(F)C(F)(F)C(F)(F)C(F)(F)C(F)F)cc1    f
 4  OCC(F)(F)C(F)(F)C(F)(F)C(F)(F)C(F)(F)C(F)F    f
 5                OCCCC(F)(F)C(F)(F)C(F)(F)F    f
 6   OC[C@@H](O)[C@@H](O)[C@H](O)[C@@H](O)CO    f
 7   FC(F)(F)C(F)(F)C(F)(F)C(F)(F)C(F)(F)CCI    t
 8  N=C(N)C(F)(F)C(F)(F)C(F)(F)C(F)(F)C(F)(F)C(F)(F)C(F)(F)F    f
 9  C=CC(=O)OCC(F)(F)C(F)(F)C(F)(F)C(F)(F)COC(=O)C=C    t
10             O=S(=O)(OCCOC(F)(F)F)C(F)(F)F    f
11         FC(F)(F)C(F)(F)CNCC(F)(F)C(F)(F)F    f

----------
# assay details: BSK_hDFCGF_SRB: Viability Assessment in the BioMAP Diversity Plus: hDFCGF Assay (AID 2283061);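 note: cells exposed to compound for 24 h before the read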
# recorded conditions: primary human foreskin fibroblasts
Calls of active or inactive are those of the source. How the source made its calls: active means hit-call score of the fitted dose curve at least 0.9, where 1 is the maximum; inactive means score below 0.9.
Outcome codes: active, inactive

> print(dat)
                                    molecule       cat
 1              CO[Si](OC)(c1ccccc1)c1ccccc1    active
 2              O=C(O)C(F)(F)C(F)(F)C(F)(F)F  inactive
 3              CCN(CC)c1ccc2c(C)cc(=O)oc2c1  inactive
 4                             CCCCNc1ccccc1  inactive
 5         O[Si](c1ccccc1)(c1ccccc1)c1ccccc1    active
 6  C=C(C)C(=O)OCCC(F)(F)C(F)(F)C(F)(F)C(F)(F)C(F)(C(F)(F)F)C(F)(F)F  inactive
 7          CC(=O)Nc1ccc(N=Nc2cc(C)ccc2O)cc1  inactive
 8                  O=S(=O)(OCC(F)F)C(F)(F)F  inactive
 9                      Oc1ccc(Nc2ccccc2)cc1  inactive
10  O=C(O)C(F)(OC(F)(F)C(F)(OC(F)(F)C(F)(F)C(F)(F)F)C(F)(F)F)C(F)(F)F (stereo not given)  inactive
11  FC(F)(F)C(F)(F)C(F)(F)C(F)(F)C(F)(F)C(F)(F)CC1CO1 (stereo not given)  inactive
12             O=S(=O)(OCCOC(F)(F)F)C(F)(F)F  inactive
13        O=C(CC(=O)C(F)(F)C(F)(F)F)C(F)(F)F  inactive
14        CCc1ccc(C(c2ccc(CC)cc2)C(Cl)Cl)cc1    active
15          FC(F)(F)C(F)(F)C(F)(F)C(F)(F)CCI  inactive
16                     O=C(O)C(F)(F)C(F)(F)F  inactive
17  FC(F)(F)C(F)(F)C(F)(F)C(F)(F)C(F)(F)C(F)(F)C(F)(F)C(F)(F)F  inactive
18  CC(CCl)OP(=O)(OC(C)CCl)OC(C)CCl (stereo not given)  inactive
19  O=S(=O)(O)C(F)(F)C(F)(F)C(F)(F)C(F)(F)C(F)(F)C(F)(F)C(F)(F)F  inactive
20  C=CC(F)(F)C(F)(F)C(F)(F)C(F)(F)C(F)(F)C(F)(F)C(F)(F)C(F)(F)F  inactive
21         FC(F)(F)C(F)(F)CNCC(F)(F)C(F)(F)F  inactive
22                  OCC(F)(F)C(F)(F)C(F)(F)F  inactive
23  FC(F)(Br)C(F)(F)C(F)(F)C(F)(F)C(F)(F)C(F)(F)Br  inactive
24             O=C(O)C(F)(F)C(F)(F)OC(F)(F)F  inactive
25                    C=CC/C=C/C/C=C/C/C=C/C  inactive
